# System: HCT-116 colon
# Assay: NCI tumour cell line growth inhibition, 48 h
// label = TRUE if TGI is not less than 30 µM, otherwise FALSE

Determine whether measured TGI meets or exceeds 30 µM for Cc1ccccc1NC(=O)/C=N/O
TRUE

Determine whether measured TGI meets or exceeds 30 µM for Cc1ccc(S(=O)(=O)OCC#CCOS(=O)(=O)c2ccc(C)cc2)cc1
FALSE

Determine whether measured TGI meets or exceeds 30 µM for C/C(=N\NC(=O)C[N+](C)(C)C)c1sc(-c2cccnc2)nc1C
TRUE

Determine whether measured TGI meets or exceeds 30 µM for COC(=O)[C@H](Cc1ccccc1)NC(=O)N(CCC#N)CCCCN(CCC#N)C(=O)N[C@@H](Cc1ccccc1)C(=O)OC
TRUE
